Attribution: ChEMBL document CHEMBL1124879

# key: entry, value: pA50
Species on record: Cavia porcellus
assay_notes: In vitro concentration required to give a 50% increase in basal contractile force in an isolated paced guinea pig papillary muscle preparation
Assay type: functional, Muscle tissue

# compound, pA50
data = [
    ("COc1cc([S+](C)[O-])ccc1-c1nc2c(OC)cncc2[nH]1 (stereo unspecified)", 3),
    ("COc1cc([S+](C)[O-])ccc1-c1nc2cc(Cl)c[nH]c-2n1 (stereo unspecified)", 3.61),
    ("COc1cc([S+](C)[O-])ccc1-c1nc2[nH]ccc(OC)c-2n1 (stereo unspecified)", 4.1),
    ("COc1ccc(-c2nc3cc[nH]cc-3n2)c(OC)c1", 4.01),
    ("COc1cc([S+](C)[O-])ccc1-c1nc2cnccc2[nH]1 (stereo unspecified)", 4.64),
    ("COc1cc([S+](C)[O-])ccc1-c1nc2cccnc2[nH]1 (stereo unspecified)", 4.7),
    ("COc1cc([S+](C)[O-])ccc1-c1nc2c(OC)nccc2[nH]1 (stereo unspecified)", 3.91),
    ("COc1ccc2[nH]c(-c3ccc([S+](C)[O-])cc3OC)nc2n1 (stereo unspecified)", 3),
    ("COc1cc([S+](C)[O-])ccc1-c1nc2cc(O)c[nH]c-2n1 (stereo unspecified)", 3.75),
    ("COc1ccc(-c2nc3cc(N)c[nH]c-3n2)c(OC)c1", 4.8),
    ("COc1ccc(-c2nc3ccc[nH]c-3n2)c(OC)c1", 5.08),
    ("COc1cc([S+](C)[O-])ccc1-c1nc2cc(N)c[nH]c-2n1 (stereo unspecified)", 4.01),
    ("COc1cc([S+](C)[O-])ccc1-c1nc2c(N)cncc2[nH]1 (stereo unspecified)", 3.72),
    ("COc1cc2[nH]c(-c3ccc([S+](C)[O-])cc3OC)nc2cn1 (stereo unspecified)", 3.76),
    ("COc1c[nH]c2nc(-c3ccc([S+](C)[O-])cc3OC)nc-2c1 (stereo unspecified)", 3.63),
    ("COc1cc([S+](C)[O-])ccc1-c1nc2cc(C)c[nH]c-2n1 (stereo unspecified)", 3.73),
]
